Every entry's value here was drawn from patent US20170101476A1.

Target: T1, Cynomolgus CXCR2 (cynomolgus, UniProt Q28519 3-353 (rhesus entry))
T1 chain: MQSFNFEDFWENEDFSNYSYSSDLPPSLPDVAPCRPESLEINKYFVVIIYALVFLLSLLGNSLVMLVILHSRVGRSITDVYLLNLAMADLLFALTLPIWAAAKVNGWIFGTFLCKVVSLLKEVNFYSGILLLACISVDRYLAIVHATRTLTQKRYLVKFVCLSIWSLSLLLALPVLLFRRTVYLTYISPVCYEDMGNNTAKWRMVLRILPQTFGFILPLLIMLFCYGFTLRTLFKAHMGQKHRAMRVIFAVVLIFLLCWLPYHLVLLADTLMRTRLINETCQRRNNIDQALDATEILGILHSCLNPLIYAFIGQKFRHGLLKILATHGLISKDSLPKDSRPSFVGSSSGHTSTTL
Assay: cell-based or functional assay
Property: FLIPR IC50, GRO-α induced intracellular calcium release (nM)
Numeric answer only, unit nM assumed.

Enquiry: State its FLIPR IC50, GRO-α induced intracellular calcium release: CXCR20032 (bispecific antibody, not shown: small tags and cut ends) EVQLVESGGELVQPGGSLRLSCAASGSILTINAMGWYRQAPGKQRELVVRRTRGGSTTYQDSVKGRFTISADIAKKTMYLQMNSLKPEDTAVYYCMLDDRGGVYWGQGTQVTVSSGGGGSGGGGSGGGGSGGGGSGGGGSGGGGSGGGGSEVQLVESGGGLVQAGGSLRLSCAASGRTFSDYAMGWFRQAPGKEREFVAAITWNGGRVFYTASVKGRFTISRDNAKNTMYLQMNSLKPEDTAVYYCAADKDRRTDYLGHPVAYWGQGTQVTVSS
Return: 3.65

# ---- query binder ----
Enquiry: State its FLIPR IC50, GRO-α induced intracellular calcium release: CXCR20020 (bispecific antibody, not shown: small tags and cut ends) EVQLVESGGGLVQAGESLRLSCAASGSTFDFKVMGWYRQPPGKQREGVAAIRLSGNMHYAESVKGRFTISKANAKNTVYLQMNSLRPEDTAVYYCKVNIRGQDYWGQGTQVTVSSGGGGSGGGGSGGGGSGGGGSGGGGSGGGGSGGGGSEVQLVESGGGLVQAGGSLRLSCAASGRTFSDYAMGWFRQAPGKEREFVAAITWNGGRVFYTASVKGRFTISRDNAKNTMYLQMNSLKPEDTAVYYCAADKDRRTDYLGHPVAYWGQGTQVTVSS
Return: 1.64
